method: Kinetics, tolerance and bioavailability study in healthy volunteers (nasal administration)
Format: in vivo, humans
runParameters: human, plasma, inhaled or intranasal, formulation of Example 1, deduced from the kinetics results, read-out: bioavailability of piribedil administered by the nasal route
parameter: bioavailability

bioavailability lookup needed for c1cnc(N2CCN(Cc3ccc4c(c3)OCO4)CC2)nc1 , thanks.
50 to 70%
